system: HCT116 cells; test: MTT assay; assay type: cell-based; settings: Homo sapiens, HCT-116, 72 h, Table 5E; HCT116 cells, 72 hours

>  <chemical_structure>
Nc1ccccc1NC(=O)c1ccc(CSc2nc3ccccc3s2)cc1

>  <IC50 (nM)>
1000

$$$$
>  <chemical_structure>
COc1cc(CNc2ccc(C(=O)Nc3ccccc3N)cn2)cc(OC)c1OC

>  <IC50 (nM)>
1000

$$$$
>  <chemical_structure>
Nc1ccccc1NC(=O)c1ccc(CSc2nnc(-c3ccccc3)o2)cc1

>  <IC50 (nM)>
400

$$$$
>  <chemical_structure>
COc1ccc(CCNc2ccc(C(=O)Nc3ccccc3N)cn2)cc1

>  <IC50 (nM)>
800

$$$$
>  <chemical_structure>
Nc1ccccc1NC(=O)c1ccc(NCc2ccc(F)cc2)nc1

>  <IC50 (nM)>
500

$$$$
>  <chemical_structure>
COc1cccc(-c2ccc(C(=O)Nc3ccccc3N)cc2)c1

>  <IC50 (nM)>
5000

$$$$
>  <chemical_structure>
Nc1ccccc1NC(=O)c1ccc(NCCc2ccc(F)cc2)nc1

>  <IC50 (nM)>
400

$$$$
>  <chemical_structure>
Cn1ccnc1SCc1ccc(C(=O)Nc2ccccc2N)cc1

>  <IC50 (nM)>
3000

$$$$
>  <chemical_structure>
COc1cc(NCc2ccc(C(=O)Nc3ccccc3N)cc2)cc(OC)c1OC

>  <IC50 (nM)>
2000

$$$$
>  <chemical_structure>
Nc1ccccc1NC(=O)c1ccc(CN2C(=O)c3ccccc3C2=O)cc1

>  <IC50 (nM)>
5000

$$$$
